Test system: NIH3T3
Experimental Protocol: Antiproliferative activity against mouse NIH/3T3 cells after 72 hrs by MTT assay
Assay Setup: NIH3T3, 72 h
pIC50: −log10 of the molar value.
# pIC50 per record follows
Property: pIC50

- Line Notation: "O=S(=O)(c1ccc(/N=C/c2cc(Br)ccc2O)cc1)N1CCCCC1"
  Op: "<"
  Observed Result: 4.30
- Line Notation: "Cc1ccc(N2NC(=O)/C(=C\\c3ccc(-c4cc([N+](=O)[O-])ccc4O)o3)C2=O)cc1C"
  Op: "="
  Observed Result: 4.43
- Line Notation: "Nc1nn2c(=O)cc(-c3ccccc3)[nH]c2c1/N=N/c1ccc2c(c1)OCO2"
  Op: "="
  Observed Result: 4.34
- Line Notation: "CCOc1ccc(-c2cc(C(F)(F)F)c(C#N)c(SCC(=O)NCC(=O)O)n2)cc1"
  Op: "<"
  Observed Result: 4.30
- Line Notation: "Cc1nn(C)cc1C(=O)Nc1ccn(Cc2c(F)cccc2Cl)n1"
  Op: "<"
  Observed Result: 4.30
- Line Notation: "O=C1NN(c2ccc(F)c(Cl)c2)C(=O)/C1=C\\c1cccc(OC(=O)c2cccs2)c1"
  Op: "="
  Observed Result: 4.55
- Line Notation: "O=C(Cn1c(-c2ccccc2)cc(=O)n2ncnc12)NNC(=S)Nc1ccccc1"
  Op: "="
  Observed Result: 4.70
- Line Notation: "C=C(N/N=C/c1cn[nH]c1-c1ccccc1)[C@H](C)Cc1ccccc1"
  Op: "<"
  Observed Result: 4.30
- Line Notation: "O=C(Cc1ccc(F)cc1)Nc1cc(SC[C@@H](O)CO)cc([N+](=O)[O-])c1"
  Op: "<"
  Observed Result: 4.30

---

Tgt: Epidermal growth factor receptor (Homo sapiens)
Sequence (P00533 whole entry): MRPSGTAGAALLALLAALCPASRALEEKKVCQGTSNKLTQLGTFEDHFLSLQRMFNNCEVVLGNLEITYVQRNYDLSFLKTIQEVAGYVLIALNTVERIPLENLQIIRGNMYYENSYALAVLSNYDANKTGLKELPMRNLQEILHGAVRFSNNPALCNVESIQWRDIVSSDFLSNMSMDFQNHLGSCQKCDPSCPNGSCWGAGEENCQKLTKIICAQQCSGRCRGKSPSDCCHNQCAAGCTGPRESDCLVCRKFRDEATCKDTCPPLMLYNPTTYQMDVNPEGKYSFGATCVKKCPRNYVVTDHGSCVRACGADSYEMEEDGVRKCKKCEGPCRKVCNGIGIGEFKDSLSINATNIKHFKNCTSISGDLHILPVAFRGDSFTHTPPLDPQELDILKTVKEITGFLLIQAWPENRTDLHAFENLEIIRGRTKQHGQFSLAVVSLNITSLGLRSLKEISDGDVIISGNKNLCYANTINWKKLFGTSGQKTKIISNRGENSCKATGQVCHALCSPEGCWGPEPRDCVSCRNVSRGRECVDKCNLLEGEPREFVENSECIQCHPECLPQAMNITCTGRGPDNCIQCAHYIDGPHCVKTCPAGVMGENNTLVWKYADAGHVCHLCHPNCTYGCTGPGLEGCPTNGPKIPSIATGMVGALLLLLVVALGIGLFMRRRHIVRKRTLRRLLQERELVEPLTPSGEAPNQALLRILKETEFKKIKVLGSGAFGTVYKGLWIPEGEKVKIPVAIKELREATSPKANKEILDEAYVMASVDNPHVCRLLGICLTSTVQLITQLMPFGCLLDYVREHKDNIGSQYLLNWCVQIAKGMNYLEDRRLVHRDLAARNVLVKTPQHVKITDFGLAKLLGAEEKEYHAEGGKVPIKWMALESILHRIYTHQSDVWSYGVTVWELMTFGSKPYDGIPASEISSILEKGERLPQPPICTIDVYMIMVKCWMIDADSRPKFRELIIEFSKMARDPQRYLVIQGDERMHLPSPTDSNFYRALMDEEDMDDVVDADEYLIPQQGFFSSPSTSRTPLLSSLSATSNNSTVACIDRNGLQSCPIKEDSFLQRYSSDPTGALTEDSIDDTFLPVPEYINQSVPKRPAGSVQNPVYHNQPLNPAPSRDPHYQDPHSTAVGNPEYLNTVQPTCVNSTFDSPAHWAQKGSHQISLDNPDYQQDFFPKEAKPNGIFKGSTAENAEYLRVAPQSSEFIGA
Please respond with YES when measured IC50 is strictly beneath 7 µM, and with NO in all other cases.

- Line Notation: "CCOc1ccc(-c2cc(C(F)(F)F)c(C#N)c(SCC(=O)NCC(=O)O)n2)cc1"
  Label Class: "NO"
- Line Notation: "O=C1NN(c2ccc(F)cc2)C(=O)/C1=C\\c1cccc(OCc2ccccc2F)c1"
  Label Class: "YES"
- Line Notation: "Nc1nn2c(=O)cc(-c3ccccc3)[nH]c2c1/N=N/c1ccc2c(c1)OCO2"
  Label Class: "YES"
- Line Notation: "Cc1cccc(N2NC(=O)/C(=C/c3ccc(-c4ccccc4F)o3)C2=O)c1"
  Label Class: "NO"

---

Listing: pIC50 of selected compounds
Tested on: NIH3T3
Experimental Protocol: Antiproliferative activity against mouse NIH/3T3 cells after 72 hrs by MTT assay
Assay Setup: NIH3T3, 72 h
pIC50: −log10 of the molar value.

- Compound: "Cc1cccc(N2NC(=O)/C(=C/c3ccc(-c4ccccc4F)o3)C2=O)c1"
  Tgt: "NIH3T3"
  Op: "<"
  pIC50: 4.30
- Compound: "Cn1c(NCc2cccc(C(F)(F)F)c2)cc(=O)n(C)c1=O"
  Tgt: "NIH3T3"
  Op: "<"
  pIC50: 4.30
- Compound: "O=C1NN(c2ccc(F)cc2)C(=O)/C1=C\\c1cccc(OCc2ccccc2F)c1"
  Tgt: "NIH3T3"
  Op: "="
  pIC50: 4.64
- Compound: "Cc1ccc(N2NC(=O)/C(=C/c3ccc(OCc4ccccc4)cc3)C2=O)cc1Cl"
  Tgt: "NIH3T3"
  Op: "="
  pIC50: 4.38
- Compound: "CS(=O)(=O)CCNCc1ccc(-c2ccc3ncnc(Nc4ccc(OCc5cccc(F)c5)c(Cl)c4)c3c2)o1 [LAPATINIB]"
  Tgt: "NIH3T3"
  Op: "="
  pIC50: 5.37
